# Test system: A673/TR/shEF
# assay-name: cell viability (LOESS-normalised, relative to median of negative controls) (log2 ratio); higher = more viable cells (less compound effect), active = hit call of the paper (over 3 MAD below the median)
# measurement-setup: 0.025 µM; library screen: screen1; EWS-FLI1 expression: high (no doxycycline); treatment time: 72 h
In all, about 3,200 compounds went through this assay and about 300 (9.4%) showed activity. The full list was thinned out, with actives kept by preference.
Exercise: for every item that follows, state its recorded cell viability (log2).
Answers are plain numbers.

>  <molecular-string>
NCCNS(=O)(=O)c1cccc2cnccc12

>  <measure>
cell viability (log2)

>  <assay-value>
0.261

$$$$
>  <molecular-string>
N#C/C(=C\c1ccc(O)c(O)c1)C(=O)NCc1ccccc1

>  <measure>
cell viability (log2)

>  <assay-value>
0.245

$$$$
>  <molecular-string>
COc1cccc(-c2cc(=O)c3ccccc3o2)c1N

>  <measure>
cell viability (log2)

>  <assay-value>
0.268

$$$$
>  <molecular-string>
COc1ccc(S(=O)(=O)N(CCO)c2ccccc2CN(C)C/C=C/c2ccc(Cl)cc2)cc1

>  <measure>
cell viability (log2)

>  <assay-value>
0.202

$$$$

We next turn to a different compound, shown below.
Incoming: Short answer please: cell viability (log2), A673/TR/shEF, entry N#C/C(=C\c1ccc(O)c(O)c1)C(=O)Nc1ccccc1
Outgoing: 0.188

Data provenance is the supplement of paper PMC6089552.
